- Tested on: S. marcescens HNR1544
- ASSAY PROTOCOL: Antibacterial activity, MIC by agar dilution
- Assay type: cell-based
- CONDITION SUMMARY: Serratia marcescens, clinically isolated strain, gram -
EXPERIMENTAL ENDPOINT: MIC (µg/mL)
Numeric answer only, unit µg/mL assumed.

Example compounds with recorded MIC:
# COMPOUND, TARGET OR SYSTEM, MIC (µg/mL)
records = [
    ("Cc1c(N2C[C@@H](N)C3(CC3)C2)c(F)c(N)c2c(=O)c(C(=O)O)cn(C3CC3)c12", "S. marcescens HNR1544", 0.05),
    ("Cc1c(N2CCC(C)(N)C2)c(F)c(N)c2c(=O)c(C(=O)O)cn(C3CC3)c12 (centres unmarked)", "S. marcescens HNR1544", 0.1),
    ("Cc1c(N2C[C@@H](N)[C@@H](C)C2)c(F)c(N)c2c(=O)c(C(=O)O)cn(C3CC3)c12 (relative stereo)", "S. marcescens HNR1544", 0.05),
    ("Cc1c(N2CC[C@H](N)C2)c(F)c(N)c2c(=O)c(C(=O)O)cn(C3CC3)c12.Cl", "S. marcescens HNR1544", 0.05),
]

Problem: Entry Cc1c(N2C[C@@H](N)C(C)(C)C2)c(F)c(N)c2c(=O)c(C(=O)O)cn(C3CC3)c12 needs its MIC filled in; supply it.
Result: 0.1

====

- ASSAY PROTOCOL: Tissue distribution after oral administration, HPLC
- Format: in vivo, Sprague-Dawley rats
- CONDITION SUMMARY: plasma; rat, 5 mg/kg oral
EXPERIMENTAL ENDPOINT: Tmax (min)
# value in min; strip the unit string

Problem: Give Tmax for Cc1c(N2C[C@@H](N)C3(CC3)C2)c(F)c(N)c2c(=O)c(C(=O)O)cn(C3CC3)c12
Result: 15

====

- Test system: S. marcescens HNR1792
- ASSAY PROTOCOL: Antibacterial activity, MIC by agar dilution
- Assay type: cell-based
- CONDITION SUMMARY: Serratia marcescens, clinically isolated strain, gram -
# maps each entry to its MIC
Express the result in mg/L but write the number alone.

Answered examples (4):
# MOLECULE, TARGET OR SYSTEM, EXPERIMENTAL ENDPOINT, VALUE OBSERVED
rows = [
    ("Cc1c(N2C[C@@H](N)C(C)(C)C2)c(F)c(N)c2c(=O)c(C(=O)O)cn(C3CC3)c12 [Example 16]", "S. marcescens HNR1792", "MIC", 6.25),
    ("Cc1c(N2C[C@@H](N)[C@@H](C)C2)c(F)c(N)c2c(=O)c(C(=O)O)cn(C3CC3)c12 (relative stereo) [Example 14]", "S. marcescens HNR1792", "MIC", 3.13),
    ("Cc1c(N2C[C@@H](N)C3(CC3)C2)c(F)c(N)c2c(=O)c(C(=O)O)cn(C3CC3)c12 [Example 10]", "S. marcescens HNR1792", "MIC", 3.13),
    ("Cc1c(N2CCC(C)(N)C2)c(F)c(N)c2c(=O)c(C(=O)O)cn(C3CC3)c12 (centres unmarked) [Example 18]", "S. marcescens HNR1792", "MIC", 3.13),
]

Read the next record carefully.
Problem: Print S. marcescens HNR1792 MIC for Cc1c(N2CC[C@H](N)C2)c(F)c(N)c2c(=O)c(C(=O)O)cn(C3CC3)c12.Cl [Example 12] .
Result: 1.56

Data provenance: patent US5547962A
